Biological target: C-X-C chemokine receptor type 4 (Homo sapiens)
Sequence (P61073 whole entry): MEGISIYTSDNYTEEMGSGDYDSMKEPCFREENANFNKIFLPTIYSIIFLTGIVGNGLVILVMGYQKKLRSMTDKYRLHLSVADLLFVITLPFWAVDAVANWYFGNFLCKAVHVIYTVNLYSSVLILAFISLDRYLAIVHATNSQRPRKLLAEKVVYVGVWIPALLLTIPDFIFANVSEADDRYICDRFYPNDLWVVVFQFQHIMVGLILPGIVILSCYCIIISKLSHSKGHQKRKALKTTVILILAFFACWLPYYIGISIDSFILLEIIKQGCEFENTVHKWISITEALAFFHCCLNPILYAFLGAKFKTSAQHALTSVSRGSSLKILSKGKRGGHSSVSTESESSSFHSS
Assay: Binding affinity to CXCR4 (unknown origin) expressed in CHO cells measured by 12G5 competitive binding method
Type: cell-based
assay.readout: IC50 (nM)
Give a bare numeral; the unit nM is implied.

[in] What measured IC50 goes with "N=C(N)NCCC[C@H](NCc1ccccn1)C(=O)NCc1ccc(CNCCCNC2CCCCC2)cc1" ?
[out] 12

* * *

Biological target: C-X-C chemokine receptor type 4 (Homo sapiens)
Experiment: Antagonist activity at CXCR4 receptor in SDF-1alpha-stimulated human SUP-T1 cells measured by calcium mobilization assay
Type: functional, cell-based
assay.readout: IC50 (nM)
Give a bare numeral; the unit nM is implied.

[in] What measured IC50 goes with "N=C(N)NCCC[C@H](NCc1ccccn1)C(=O)NCc1ccc(CNCCCNC2CCCCC2)cc1" ?
[out] 1.6
